# tested_on: Cholinesterase (Equus caballus) (UniProt P81908)
# Sequence (P81908 whole entry): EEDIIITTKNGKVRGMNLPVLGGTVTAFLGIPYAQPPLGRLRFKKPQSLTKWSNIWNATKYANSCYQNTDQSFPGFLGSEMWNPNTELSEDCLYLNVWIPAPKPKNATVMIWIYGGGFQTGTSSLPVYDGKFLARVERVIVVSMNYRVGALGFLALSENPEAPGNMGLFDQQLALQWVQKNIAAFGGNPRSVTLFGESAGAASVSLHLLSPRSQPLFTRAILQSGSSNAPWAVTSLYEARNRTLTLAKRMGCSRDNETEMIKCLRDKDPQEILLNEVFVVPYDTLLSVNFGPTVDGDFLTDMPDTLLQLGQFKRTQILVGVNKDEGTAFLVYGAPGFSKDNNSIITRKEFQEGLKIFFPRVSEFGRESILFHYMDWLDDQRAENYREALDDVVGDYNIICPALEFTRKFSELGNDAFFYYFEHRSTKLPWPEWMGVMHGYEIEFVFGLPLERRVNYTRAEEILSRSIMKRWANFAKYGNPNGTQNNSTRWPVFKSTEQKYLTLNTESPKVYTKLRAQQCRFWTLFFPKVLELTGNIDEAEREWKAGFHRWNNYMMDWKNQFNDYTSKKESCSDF
# experiment: Inhibition of equine serum BChE using (S)-butyrylthiocholine iodide as substrate at 10 uM measured for 6 mins by Ellman's method
Activity calls are given as the source filed them. The calls are words filed in the database; no cut-off is given here.
quantity_name: inhibition

>>> observed_result("C=C[C@H]1[C@H](O[C@@H]2O[C@H](CO)[C@@H](O)[C@H](O)[C@H]2O)OC=C(C(=O)OC)[C@H]1C[C@@H]1c2c(O)ccc3[nH]cc(c23)CCN1C")
"inactive"
>>> observed_result("C=C[C@H]1[C@H](O[C@@H]2O[C@H](CO)[C@@H](O)[C@H](O)[C@H]2O)OC=C(C(=O)OC)[C@H]1C[C@H]1c2c(O)ccc3[nH]cc(c23)CCN1C")
"inactive"
>>> observed_result("C[N+]1([O-])CCc2c[nH]c3ccc(O)c(c23)C1 (stereo unspecified)")
"41%"
>>> observed_result("C=C[C@H]1[C@H](O[C@@H]2O[C@H](COC(=O)/C=C/c3ccc(OC)c(OC)c3)[C@@H](O)[C@H](O)[C@H]2O)OC=C(C(=O)OC)[C@H]1C[C@H]1c2c(O)ccc3[nH]cc(c23)CCN1C")
"inactive"
>>> observed_result("CN1CCc2c[nH]c3ccc(O)c(c23)C1")
"18%"
>>> observed_result("C[N+]1=Cc2c(O)ccc3[nH]cc(c23)CC1")
"21%"
